system name: T1, recombinant human IL-23 (human, UniProt Q9NPF7 20-189; P29460 23-328)
T1 construct: also called hIL-23
T1 sequence 1: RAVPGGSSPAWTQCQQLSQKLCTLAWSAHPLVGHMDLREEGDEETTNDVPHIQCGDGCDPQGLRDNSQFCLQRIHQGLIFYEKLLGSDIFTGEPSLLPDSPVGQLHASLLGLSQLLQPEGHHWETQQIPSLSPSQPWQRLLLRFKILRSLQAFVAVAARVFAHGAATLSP
T1 sequence 2: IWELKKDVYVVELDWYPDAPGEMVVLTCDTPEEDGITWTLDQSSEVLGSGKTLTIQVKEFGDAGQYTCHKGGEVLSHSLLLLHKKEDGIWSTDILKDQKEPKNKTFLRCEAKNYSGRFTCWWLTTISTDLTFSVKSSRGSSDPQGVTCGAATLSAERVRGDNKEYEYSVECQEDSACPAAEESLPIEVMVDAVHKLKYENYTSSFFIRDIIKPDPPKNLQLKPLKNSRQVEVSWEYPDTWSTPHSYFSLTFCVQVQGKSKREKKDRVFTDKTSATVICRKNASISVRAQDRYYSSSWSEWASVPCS
assay procedure: SPR (Biacore T100), purified antibody captured on anti-human IgG, IL-23 analyte, 1:1 model
Protocol: Biacore analysis was carried out using a capture surface on a CM5 chip. Anti-human IgG (BR-1008-39) was used as the capturing agent. Anti-human IgG was coupled to a CM5 biosensor chip by primary amine coupling. Humanized antibody was captured on this immobilised surface and defined concentrations of IL-23 were passed over this captured surface. […] Data was analysed using the software inherent to the machine and fitted to the 1:1 model of binding. […]
Measured pKd, listed per entry.
Recall that pKd is obtained by taking minus log10 of the concentration measured in molar.

Please review the entries below; each comes with its answer.
1. A5M0 (antibody, human IgG1, kappa, V domains shown, Full length chains) VH: QVQLVQSGAEVKKPGSSVKVSCKASGYTFTSYGITWVRQAPGQGLEWMGENYPRSGNTYYNEKFKGRVTITADKSTSTAYMELSSLRSEDTAVYYCARAEFISTVVAPYYYALDYWGQGTLVTVSS VL: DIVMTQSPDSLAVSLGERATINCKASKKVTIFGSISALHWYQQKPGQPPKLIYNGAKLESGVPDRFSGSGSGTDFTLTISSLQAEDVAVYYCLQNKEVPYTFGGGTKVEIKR    9.99
2. A6M0 (antibody, human IgG1, kappa, V domains shown, Full length chains) VH: QVQLVQSGAEVKKPGSSVKVSCKASGYTFTSYGITWVRQAPGQGLEWMGENYPRSGNTYYNEKFKGRVTITADKSTSTAYMELSSLRSEDTAVYYCARVEFISTVVAPYYYALDYWGQGTLVTVSS VL: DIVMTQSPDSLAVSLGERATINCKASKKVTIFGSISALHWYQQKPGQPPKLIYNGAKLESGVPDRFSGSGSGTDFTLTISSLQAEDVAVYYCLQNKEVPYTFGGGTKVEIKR    10.00

Query binder follows.
## Input Sample A9M3 (antibody, V domains shown) VH: QVQLVQSGAEVKKPGSSVKVSCKASGYTFTSYGITWVRQAPGQGLEWMGEDYPRSGNTYYNEKFKGRVTITADKSTSTAYMELSSLRSEDTAVYYCARVEFISTVVAPYYYALDYWGQGTLVTVSS VL: DIVMTQSPDSLAVSLGERATINCKASKKVTIFGSTSALHWYQQKPGQPPKLIYNGAKLESGVPDRFSGSGSGTDFTLTISSLQAEDVAVYYCLQNKEVPYTFGGGTKVEIK — what was its pKd?
## Output 10.19
